Values were extracted from ChEMBL document CHEMBL3593169.

Tested on: MDA-MB-435
Assay overview: Cytotoxicity against human MDA-MB-435 cells assessed as reduction in cell growth incubated for 72 hrs
Assay type: functional, cell-based
Cond: MDA-MB-435, 72 h
Below is a list of entries, each paired with its recorded pIC50 value.
Conceptually, pIC50 converts a concentration in mol/L into minus its log10.

{"Query smiles": "COc1ccc(C[C@@H]2COc3cc(O)cc(O)c3C2=O)cc1O", "Tested target": "MDA-MB-435", "pIC50": 6.00}
{"Query smiles": "COc1cc(O)c2c(c1OC)OC/C(=C\\c1ccc(O)c(O)c1)C2=O", "Tested target": "MDA-MB-435", "pIC50": 5.34}
{"Query smiles": "COc1cc(O)c2c(c1OC)OC/C(=C\\c1ccc(O)cc1)C2=O", "Tested target": "MDA-MB-435", "pIC50": 4.88}

Q) Can you look up the measured pIC50 of COc1ccc(C[C@@H]2COc3c(OC)c(OC)cc(O)c3C2=O)cc1O for me?
A) 5.96
